molecular target: E. coli RecA (Escherichia coli, UniProt P0A7G6)
Sequence (P0A7G6 2-353): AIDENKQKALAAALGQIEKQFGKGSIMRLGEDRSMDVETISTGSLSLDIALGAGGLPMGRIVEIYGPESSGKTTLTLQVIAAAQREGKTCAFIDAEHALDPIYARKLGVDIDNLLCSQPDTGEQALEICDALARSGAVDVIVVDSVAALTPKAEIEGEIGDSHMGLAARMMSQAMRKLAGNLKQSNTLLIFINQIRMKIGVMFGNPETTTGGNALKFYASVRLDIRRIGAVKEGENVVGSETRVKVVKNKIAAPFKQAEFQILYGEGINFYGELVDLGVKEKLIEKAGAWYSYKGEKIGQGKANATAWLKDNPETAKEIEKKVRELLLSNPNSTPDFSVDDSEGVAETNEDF
Outcome measure: IC50

[[record]]
compound = "CN(C)CCCNCC(O)Cn1c2ccc(Cl)cc2c2cc(Cl)ccc21 (stereo not shown) [54i-1]"
tested_target = "E. coli RecA (Escherichia coli, UniProt P0A7G6)"
reading = "790 nM"


* * *

biological target: human RAD54 (Homo sapiens); assay: biochemical; conditions: read-out: % inh.
Sequence (Q92698 whole entry): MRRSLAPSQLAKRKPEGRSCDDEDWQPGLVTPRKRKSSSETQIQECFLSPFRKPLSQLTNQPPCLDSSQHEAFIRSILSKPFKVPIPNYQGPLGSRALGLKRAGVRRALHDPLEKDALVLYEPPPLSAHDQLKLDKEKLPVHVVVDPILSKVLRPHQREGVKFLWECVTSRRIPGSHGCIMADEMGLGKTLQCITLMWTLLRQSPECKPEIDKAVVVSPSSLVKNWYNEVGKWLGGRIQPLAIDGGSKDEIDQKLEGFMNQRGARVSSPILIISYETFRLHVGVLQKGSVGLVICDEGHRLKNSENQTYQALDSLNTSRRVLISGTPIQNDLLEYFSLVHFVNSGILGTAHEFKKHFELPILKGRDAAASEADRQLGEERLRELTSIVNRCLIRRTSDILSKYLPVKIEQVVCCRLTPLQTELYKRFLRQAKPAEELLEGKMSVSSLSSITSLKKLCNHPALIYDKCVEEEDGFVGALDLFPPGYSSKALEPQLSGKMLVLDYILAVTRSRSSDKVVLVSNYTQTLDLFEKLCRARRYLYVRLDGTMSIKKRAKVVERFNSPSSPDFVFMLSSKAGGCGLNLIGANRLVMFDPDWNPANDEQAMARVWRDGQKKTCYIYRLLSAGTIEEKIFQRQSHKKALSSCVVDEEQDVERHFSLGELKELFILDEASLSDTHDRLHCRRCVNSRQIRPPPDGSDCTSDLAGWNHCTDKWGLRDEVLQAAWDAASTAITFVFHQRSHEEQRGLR
Here the recorded inhibition at 10 µM is given for each entry.
Outcome measure: inhibition at 10 µM (%)

[[record]]
compound = "NC=O [54i^P-4]"
reading = 36

[[record]]
compound = "Cc1nc2c(=O)n(C)c(=O)nc-2n(C)n1 [54i^P-1a]"
reading = 44

[[record]]
compound = "Cc1ccc(C)n1-c1ccc(C(=O)O)c(O)c1 [54i^P-2a]"
reading = 50

[[record]]
compound = "CS(=O)(=O)C1=NSC2=NC(=O)C(=Cc3ccc(SCc4ccc(Cl)cc4)o3)C(=N)N21 [54i^P-3]"
reading = 27

[[record]]
compound = "CCn1nc(-c2ccccc2C)nc2c(=O)n(C)c(=O)nc1-2 [54i^P-1c]"
reading = 70

[[record]]
compound = "CCn1nc(-c2ccc(C)cc2)nc2c(=O)n(C)c(=O)nc1-2 [54i^P-1d]"
reading = 49

[[record]]
compound = "Cc1ccc(C)n1-c1ccc(SCC(=O)O)cc1 [54i^P-2b]"
reading = 70

[[record]]
compound = "CCCc1nc2c(=O)n(C)c(=O)nc-2n(C)n1 [54i^P-1b]"
reading = 61

[[record]]
compound = "CCn1nc(-c2ccc(C(F)F)cc2)nc2c(=O)n(C)c(=O)nc1-2 [54i^P-1e]"
reading = 79

[[record]]
compound = "CC1(C)Cc2c(ccc3ccccc23)C(CCN2CCCCC2)=N1 [54i-2]"
reading = 18

[[record]]
compound = "CN(C)CCCNCC(O)Cn1c2ccc(Cl)cc2c2cc(Cl)ccc21 (centres unmarked) [54i-1]"
reading = 68

